Collected Kd values appear next to each entry.
# target-or-test-system: Biotinylated SARS-CoV-2 S1 protein (ACRO, S1N-C82E8) (UniProt P0DTC2 16-685)
# assay-details: BLI

# binder, Kd
data = [
    ("Ab 26 scFv-Fc (scFv, V domains shown) VH: QVQLVQSGGGLVQPGRSLRLSCAASGFTFDDYAMHWVRQVPGKGLEWVSGIDWNSGVIGYADSVKGRFTISRDNAKNSLYLQMNSLRAEDTALYYCAKDAYSYGFLGAFDIWGQGTMVTVSS VL: LPVLTQPPSVSVAPGQTASITCGGDNIRTKGVHWYQQKPGQAPLLVIYYASDRPSGIPERFSGSSSGNTATLTISRVEAGDEADYYCQVWDSSSDLVVFGGGTTLTVL", "0.0875 nM"),
    ("RBD-R3-E1-F5 Ab (Ab_36) (scFv, V domains shown) VH: QVQLQQSGPGLVKPSQTLSLTCAIFGDSVTSNSAAWNWIRQSPSRGLEWLGRTYYSSKWYNDYAVSVKSRVTINADTSKNQLSLQLNSVTPEDTAVYYCARGWLRLSFDPWGQGTLVTVSS VL: NFMLTQPHSVSESPGKTVTISCTGSSGSIASNYVQWLQQRLGSAPTTVIYEDNQRPSGVPDRFSGSIDSSSNSASLTISGLKTEDEADYYCQSYDPNNHGVVFGGGTKLTVL", "0.0306 nM"),
    ("Ab 28 scFv-Fc (scFv, V domains shown) VH: QVTLKESGPGLVNPSETLSLTCTVSGASISNSFWSWIRQSPGKGLEWIGYTSYSGNSIYNPSLKSRLTMSIDTSKNQLSLNLRSLTAADTAVYYCARREWIKGHFDYWGQGTLVTVSS VL: NFMLTQPHSVSESPGKTVTISCTGSGGSIASNYVQWYQQRPGSAPTTVIYEDNQRPSGVPDRFSGSIDSSSNSASLTISGLKTEDEADYYCQSYDSSNPVVFGGGTKLTVL", "< 0.001 nM"),
    ("S1-RBD-R3-T1-C7 Ab (Ab 29) (scFv, V domains shown) VH: QVQLQQSGPGLVKPSQTLSLTCAISGDSVSSYSDAWNWIRQSPSRGLEWLGRTYYRSKWYNDYAVSVKSRITINPDTSKNQFSLQLSSVTPEDTAVYYCAREIVATTPFRNYYYGMDVWGQGTTVTVSS VL: NFMLTQPHSVSESPGNTVTISCTRTSGSIASNYVQWYQQRPGSSPTTVIFQDKLRPSGVPDRFSGSIDSSSNSASLTISGLKTEDEADYYCQSYDSSSLWVFGGGTKLTVL", "< 0.001 nM"),
]
